Entries annotated with measured AUC of dose-response viability curve
Test system: SN12C
Test: AUC of dose-response viability curve, drug alone (arbitrary (AUC of normalised viability)); higher = less growth inhibition
Conditions: treatment: drug alone; 5 days

C#Cc1cccc(Nc2ncnc3cc(OCCOC)c(OCCO)cc23)c1.Cl: 2.95
C#Cc1cccc(Nc2ncnc3cc(OCCOC)c(OCCO)cc23)c1: 3.24

Request: Quick one: AUC of dose-response viability curve for `CCS(=O)(=O)Nc1ccc2c(c1)/C(=C(/Nc1ccc(CN3CCCCC3)cc1)c1ccccc1)C(=O)N2` ?
Response: 1.86

Request: Quick one: AUC of dose-response viability curve for COc1cc(Nc2ncc(F)c(Nc3ccc4c(n3)NC(=O)C(C)(C)O4)n2)cc(OC)c1OC [R406(free base)] ?
Response: 2.79

Request: Quick one: AUC of dose-response viability curve for `NC(=O)c1ccc(-c2nc(-c3ccc4c(c3)OCO4)c(-c3ccccn3)[nH]2)cc1` ?
Response: 2.86

Request: Quick one: AUC of dose-response viability curve for Nc1cccc2c1CN(C1CCC(=O)NC1=O)C2=O (stereo unspecified) [Lenalidomide (Revlimid)] ?
Response: 3.28

Request: Quick one: AUC of dose-response viability curve for `NC1(Cc2ccc(Cl)cc2)CCN(c2ncnc3[nH]ccc23)CC1` ?
Response: 3.08

Request: Quick one: AUC of dose-response viability curve for `O=c1cc(-c2cccc3c2Sc2ccccc2S3)oc(N2CCOCC2)c1` ?
Response: 3.23

Request: Quick one: AUC of dose-response viability curve for `O=C(O)[C@]1(Cc2cccc(Nc3nccs3)n2)CC[C@@H](Oc2cccc(Cl)c2F)CC1` ?
Response: 2.46

====

Entries annotated with measured minimum viability across doses
Test system: CAKI-1
Assay: minimum viability across doses, drug + dasatinib, relative to DMSO (fraction); higher = less growth inhibition
Conditions: treatment: drug + dasatinib (fixed dose, not stated); 5 days
Give a plain numeric answer without units written out.

Here are 2 compounds together with their reported answers.
COc1cc(OC)c(/C=C/S(=O)(=O)Cc2ccc(OC)c(NCC(=O)[O][Na])c2)c(OC)c1 + Cc1nc(Nc2ncc(C(=O)Nc3c(C)cccc3Cl)s2)cc(N2CCN(CCO)CC2)n1 [dasatinib]: 0.0849
CC(C)c1ccccc1Cc1cc(C(=O)Nc2ccc(S(=O)(=O)c3ccccc3C(C)(C)C)cc2)c(O)c(O)c1O [TW-37] + Cc1nc(Nc2ncc(C(=O)Nc3c(C)cccc3Cl)s2)cc(N2CCN(CCO)CC2)n1 [dasatinib]: 0.0425

Request: API: value(readout=minimum viability across doses, system=CAKI-1) for record Cc1cnc(NC(=O)Nc2cc(Br)c(C)cc2OC[C@@H]2CNCCO2)cn1 + Cc1nc(Nc2ncc(C(=O)Nc3c(C)cccc3Cl)s2)cc(N2CCN(CCO)CC2)n1 [dasatinib]
Response: 0.0829

Request: API: value(readout=minimum viability across doses, system=CAKI-1) for record COc1cc(N2CCC(N3CCN(C)CC3)CC2)ccc1Nc1ncc(Cl)c(Nc2ccccc2S(=O)(=O)C(C)C)n1 [TAE684 (NVP-TAE684)] + Cc1nc(Nc2ncc(C(=O)Nc3c(C)cccc3Cl)s2)cc(N2CCN(CCO)CC2)n1 [dasatinib]
Response: 0.0167

Request: API: value(readout=minimum viability across doses, system=CAKI-1) for record CCn1c(-c2nonc2N)nc2c(C#CC(C)(C)O)ncc(OC[C@H]3CCCNC3)c21 + Cc1nc(Nc2ncc(C(=O)Nc3c(C)cccc3Cl)s2)cc(N2CCN(CCO)CC2)n1 [dasatinib]
Response: 0.305
